Tested on: Membrane Proteome
Assay Overview: proteome-wide probe labelling blockade by competitive ABPP – cell lysate, gel-based fluorescence, soluble and membrane fractions, selectivity assay for PAD4 inhibitor project, late-stage follow-up (AID 651628)
Condition Parameters: MCF7 proteome, CA-Rh gel-based ABPP, anti-target count, at 50 µM
Activity calls are given as the source filed them.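 The calls were made as follows: active = at least one off-target enzyme showing weaker fluorescent probe labeling in any proteome panel; inactive = no off-target enzyme affected in any panel.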
Respond using exactly one of the listed classes: Yes for active, No for inactive

Past entries and their recorded results:
O=C1C=C(Br)C(=O)c2ncccc21 : Yes
NC1=CC(=O)c2ccc(-c3cccc(C(=O)O)n3)nc2C1=O : No
COC1=C(N)C(=O)c2ncccc2C1=O : No
COC(=O)c1cccc(-c2ccc3c(n2)C(=O)C(Br)=CC3=O)n1 : Yes

// return assay outcome for `O=C1C(O)=C(O)C(=O)c2ncccc21` Yes

Also, `COC1=C(N)C(=O)c2nc(-c3nc(C(=O)O)c(C)c(-c4ccc(OC)c(OC)c4O)c3N)ccc2C1=O` please. No

Repeat for the following molecule: `COC1=CC(=O)c2nc(C#N)ccc2C1=O` Yes

Then this molecule: `COC1=C(I)C(=O)c2nc(C#N)ccc2C1=O` Yes

Likewise for `NC1=CC(=O)c2cccnc2C1=O` ? No

Record: `COC(=O)c1cccc(-c2ccc3c(n2)C(=O)C(N)=CC3=O)n1` No
